Where these numbers come from: the supplement of paper PMC10338343

Test system: MIWI (PIWIL1) piRISC loaded with piRNA #2 (30 nt);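 note: 1 nM active piRISC with 0.1 nM target library at 33 °C single turnover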
testDescription: pre-steady-state target cleavage rate (min^-1); higher = faster piRNA-guided slicing of the target
conditionsUsed: guide: piRNA #2 5'p-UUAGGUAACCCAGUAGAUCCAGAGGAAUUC; auxiliary factor: 500 nM mouse GTSF1
Whole data set: some 5,500 sequences, median “pre-steady-state target cleavage rate” near 0.1, cut for the highest 2% near 0.64. The sample holds the highest values, similar sequences and a random draw of the others, so the mix is not that of the screen.
Would you mind labelling by pre-steady-state target cleavage rate? At or over 0.4 is yes (1), under is no (0).

Example results:
[[record]]
biosequence = "CUAUGCCUCUGGAUCUACUGGGUUACCUAA"
group = "no (0)"

[[record]]
biosequence = "CUAUUCCUCUGGAUCUACUGGGUUACCAUAA"
group = "yes (1)"


Check the entry `CAAUUCCUCAGCAUCUACUGGGUUACCUAA` : does pre-steady-state target cleavage rate equal or exceed 0.4?
yes (1)

Check the entry `CUUAUGCUCUGGAUCUACUGGGUUACCUAA` : does pre-steady-state target cleavage rate equal or exceed 0.4?
no (0)

Check the entry `CAAUUCCUCAGGAUCUACUGGGUUACGUAA` : does pre-steady-state target cleavage rate equal or exceed 0.4?
yes (1)

Check the entry `CUAUUCCUGUGGAUCUACUGGGUUACGUAA` : does pre-steady-state target cleavage rate equal or exceed 0.4?
yes (1)

Check the entry `GAAUUCCACUGGAUCUACUGGGUUAGCUAA` : does pre-steady-state target cleavage rate equal or exceed 0.4?
yes (1)

Check the entry `CUAUUCCUCUCGAUCUACUGCGUUACCUAA` : does pre-steady-state target cleavage rate equal or exceed 0.4?
yes (1)

###

Tested on: MIWI (PIWIL1) piRISC loaded with piRNA #2 (30 nt);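 note: 1 nM active piRISC with 0.1 nM target library at 33 °C single turnover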
testDescription: pre-steady-state target cleavage rate (min^-1); higher = faster piRNA-guided slicing of the target
conditionsUsed: guide: piRNA #2 5'p-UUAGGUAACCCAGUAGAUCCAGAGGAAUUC; auxiliary factor: 500 nM mouse GTSF1
The full ranking holds about 5,500 sequences; the median of “pre-steady-state target cleavage rate” is about 0.1, and the highest 2% start at about 0.64. Only a selection was taken, and the highest values are over-represented in it overall.
Would you mind labelling by pre-steady-state target cleavage rate? At or over 0.2 is Yes, under is No.

[[record]]
biosequence = "GAAUACCUCUGGAUCUACUGCGUUACCUAA"
targetundertest = "MIWI (PIWIL1) piRISC loaded with piRNA #2 (30 nt)"
group = "Yes"

[[record]]
biosequence = "GAAUUCCUCUGGAUCUACUGGGUGACCUAA"
targetundertest = "MIWI (PIWIL1) piRISC loaded with piRNA #2 (30 nt)"
group = "Yes"

[[record]]
biosequence = "CUAUACCUCUGGAUCUACUGCGUUACCUAA"
targetundertest = "MIWI (PIWIL1) piRISC loaded with piRNA #2 (30 nt)"
group = "Yes"


Check the entry `GUAUACCUCUGGAUCUACUGGGUUACCUAA` : does pre-steady-state target cleavage rate equal or exceed 0.2?
Yes

Check the entry `CUAUUCCUCUGGAUCUACUCCGUUACCUAA` : does pre-steady-state target cleavage rate equal or exceed 0.2?
No

Check the entry `CUUUUCCUCUGGAUCUACUGGGUAACCAAA` : does pre-steady-state target cleavage rate equal or exceed 0.2?
No

###

System: MIWI (PIWIL1) piRISC loaded with piRNA #2 (30 nt);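 note: 1 nM active piRISC with 0.1 nM target library at 33 °C single turnover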
testDescription: pre-steady-state target cleavage rate (min^-1); higher = faster piRNA-guided slicing of the target
conditionsUsed: guide: piRNA #2 5'p-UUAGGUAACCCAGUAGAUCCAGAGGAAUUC; auxiliary factor: 500 nM mouse GTSF1
In all, about 5,500 sequences were measured (“pre-steady-state target cleavage rate”: median about 0.1, highest 2% from about 0.64 on). Shown is part of a subset that was picked to be rich in the highest values.
readoutKind: pre-steady-state target cleavage rate

// below: answered sequences
[[record]]
biosequence = "CUUAACCUCUCGAUCUACUGGGUUACCUUA"
result = 0.373

[[record]]
biosequence = "CAAUUCCUCUGGAACUACUCGGUUACCUAA"
result = 0.157

[[record]]
biosequence = "CAAUACGUCUGGAUCUACUGGGUUACCUAA"
result = 0.494

[[record]]
biosequence = "CUUUUCCUCUUGGAUCUACUGGGUUACCUAA"
result = 0.346

[[record]]
biosequence = "CAAUUCCUCUGGUUCUACUCGGUUACCUAA"
result = 0.167

[[record]]
biosequence = "GAAUUCCUCUGGAUCUACUGGGUUUGGUAA"
result = 0.244


Recorded pre-steady-state target cleavage rate for `CUUAAGGACUGGAUCUACUGGGUUAACUAA` on MIWI (PIWIL1) piRISC loaded with piRNA #2 (30 nt) was 0.116

###

Tested on: MIWI (PIWIL1) piRISC loaded with piRNA #2 (30 nt);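 note: 1 nM active piRISC with 0.1 nM target library at 33 °C single turnover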
testDescription: pre-steady-state target cleavage rate (min^-1); higher = faster piRNA-guided slicing of the target
conditionsUsed: guide: piRNA #2 5'p-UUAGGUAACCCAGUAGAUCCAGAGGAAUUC; auxiliary factor: 500 nM mouse GTSF1
Over roughly 5,500 sequences, “pre-steady-state target cleavage rate” has its median near 0.1; the highest 2% begin near 0.64. The list comes from a sample in which the highest values are over-represented; it also holds close analogues and randomly drawn sequences.
We'd kindly ask you to apply these pre-steady-state target cleavage rate classes: lower segment (below 0.4), middle segment (0.4 to below 0.5), upper segment (0.5 or more)

Example results:
[[record]]
biosequence = "CUUAAGGAGACCUUCUACUGGGUUACGUAA"
group = "lower segment"

[[record]]
biosequence = "CUUUACCUCUGGAUCUACUCGGUUACCUAA"
group = "lower segment"

[[record]]
biosequence = "CUUUUCCUCUCGAUCUACUGGGUUACCAAA"
group = "upper segment"


Form: Item = `CAAUUCCUCUCGAUCUACUGGGUUACGUAA` ; Class = ?
upper segment

Form: Item = `CUUAUCCUCUCGAUCUACUGGGUUACCAAA` ; Class = ?
upper segment

Form: Item = `CUAUUCCUCUGGAUCUACUGGGUUACGUAA` ; Class = ?
upper segment

Form: Item = `CUAUUCCACUGGAUCUACUGGGUUUCCUAA` ; Class = ?
middle segment

Form: Item = `CUAUUCCUCUCGAUCUACUGGGUUACCAAA` ; Class = ?
upper segment

Form: Item = `GAAUUCCUCUGGAUCUACUGGCUAACCUAA` ; Class = ?
lower segment

Form: Item = `GUAUUCCUCUGGAUCUACUGGGUUACGUAA` ; Class = ?
lower segment

###

Tested on: MIWI (PIWIL1) piRISC loaded with piRNA #2 (30 nt);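 note: 1 nM active piRISC with 0.1 nM target library at 33 °C single turnover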
testDescription: pre-steady-state target cleavage rate (min^-1); MIWI and MILI are mouse PIWI proteins and EfPiwi is from a freshwater sponge; tags in brackets are library labels; higher = faster piRNA-guided slicing of the target;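 note: 1 nM active piRISC with 0.1 nM target library at 33 °C single turnover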
conditionsUsed: guide: piRNA #2 5'p-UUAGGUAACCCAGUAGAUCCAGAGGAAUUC; auxiliary factor: 500 nM mouse GTSF1
The full ranking holds about 5,500 sequences; the median of “pre-steady-state target cleavage rate” is about 0.1, and the highest 2% start at about 0.64. Only a selection was taken, and the highest values are over-represented in it overall.
Would you mind labelling by pre-steady-state target cleavage rate? At or over 0.4 is 1, under is 0.

[[record]]
biosequence = "GAUUUCCUCUGGUUCUACUGGGUUACCUAA"
targetundertest = "MIWI (PIWIL1) piRISC loaded with piRNA #2 (30 nt)"
group = 1

[[record]]
biosequence = "CUAUUCCUCACCAUCUACUGGGUUACCUAA"
targetundertest = "MIWI (PIWIL1) piRISC loaded with piRNA #2 (30 nt)"
group = 0

[[record]]
biosequence = "CUUAACCUCUGGAUCUACUGUGUUACCUAA"
targetundertest = "MIWI (PIWIL1) piRISC loaded with piRNA #2 (30 nt)"
group = 1

[[record]]
biosequence = "CUAUUCCUCGGAUCUACUGGGUUACCUAA"
targetundertest = "MIWI (PIWIL1) piRISC loaded with piRNA #2 (30 nt)"
group = 1

[[record]]
biosequence = "CUUAACCUCUCGAUCUUCUGGGUUACCUAA"
targetundertest = "MIWI (PIWIL1) piRISC loaded with piRNA #2 (30 nt)"
group = 1

[[record]]
biosequence = "CUAUUCCUCACGAUCUACUGGGUUACCUAA"
targetundertest = "MIWI (PIWIL1) piRISC loaded with piRNA #2 (30 nt)"
group = 1


Check the entry `CUUAUCCUCUGGAUCUACUGGGAUACCUAA` : does pre-steady-state target cleavage rate equal or exceed 0.4?
0

Check the entry `CAAUUCCUCCGGAUCUACUGGGUUACCUAA` : does pre-steady-state target cleavage rate equal or exceed 0.4?
1

Check the entry `CUUAACCUCUGGAUCUACUGGGUAUGCUAA` : does pre-steady-state target cleavage rate equal or exceed 0.4?
0

Check the entry `CUUUUCCUCUCGUUCUACUGGGUUACCUAA` : does pre-steady-state target cleavage rate equal or exceed 0.4?
1

Check the entry `GAAUUCCUCAGGAUCUACUGCGUUACCUAA` : does pre-steady-state target cleavage rate equal or exceed 0.4?
1

Check the entry `CAAUUCCUGUGGAUCUACAGGGUUACCUAA` : does pre-steady-state target cleavage rate equal or exceed 0.4?
0

Check the entry `CAAUUCCUCUGGAUCUACUGGGAUACCUUA` : does pre-steady-state target cleavage rate equal or exceed 0.4?
0

Check the entry `CUAUUCCUCUCGUUCUACUGGGUUACCUAA` : does pre-steady-state target cleavage rate equal or exceed 0.4?
1

Check the entry `CUUAAGCUCAGGAUCUACAGGGUUACCUAA` : does pre-steady-state target cleavage rate equal or exceed 0.4?
0
